All figures here come from patent US20260242478A1.

We begin with a simple list: items and their reported Anti-CD28 Fab signal in the presence of CD28.
# assayed.target: T1, Anti-CD28 Fab (SEQ ID NOs: 696, 697)
# T1 construct: In the phage ELISA the Fab was biotinylated and captured on neutravidin coated plates
# T1 sequence (VH, as listed by the source, chain 1 of 2): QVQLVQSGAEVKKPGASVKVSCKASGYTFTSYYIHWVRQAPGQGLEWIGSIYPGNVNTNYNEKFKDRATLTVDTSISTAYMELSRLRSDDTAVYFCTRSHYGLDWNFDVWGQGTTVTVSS
# T1 sequence (VL, as listed by the source, chain 2 of 2): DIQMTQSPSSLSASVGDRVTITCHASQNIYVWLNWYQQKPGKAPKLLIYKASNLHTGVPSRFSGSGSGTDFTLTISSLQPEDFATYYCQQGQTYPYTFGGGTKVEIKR
# assay: phage binding ELISA on captured Fab; CD28 antigen as competitor
quantity.measured: Anti-CD28 Fab signal in the presence of CD28

>>> numeric_readout("TCSAGATYKWPTCL (tested as crude phage supernatant) [Phage-1669]")
0.07
>>> numeric_readout("VCAAGAAYPWPACL (tested as crude phage supernatant) [Phage-1673]")
0.07
>>> numeric_readout("LCAAVFAYTWPMCF (tested as crude phage supernatant) [Phage-1667]")
0.07
>>> numeric_readout("SCAAVFSFNWPECF (tested as crude phage supernatant) [Phage-1663]")
0.07
>>> numeric_readout("TCSAGASYSWPYCM (tested as crude phage supernatant) [Phage-1664]")
0.07
>>> numeric_readout("MCTAGFSFNWPECL (tested as crude phage supernatant) [Phage-1661]")
0.07
